Recorded values, source patent US11041000B2.

# TEST DETAILS: Stability in human fecal homogenate
# Format: in vitro ADME
# REPORTED CONDITIONS: 20% fecal homogenate (supernatant), pH 6.8, 20% human fecal homogenate, anaerobic, 37° C., read-out: t½: Human Feces anaerobic (converted)
# Protocol: Centrifuged the homogenate at 2800×g for 15 min. The supernatant is taken out and used for incubations. […] The final test compound concentration was 20 μM.
Bridge positions count the residues as written; N and C are the ends. Square brackets hold non-standard residues; d marks the D form. Peptide text beside a SMILES is read from it. Trp(7-Me) = Cc1cccc2c(C[C@H](N)C(=O)O)c[nH]c12; Trp(2-Me) = Cc1[nH]c2ccccc2c1C[C@H](N)C(=O)O; 2Nal = N[C@@H](Cc1ccc2ccccc2c1)C(=O)O; AEF = NCCOc1ccc(C[C@H](N)C(=O)O)cc1; Pen = CC(C)(S)[C@H](N)C(=O)O; αMeK = C[C@](N)(CCCCN)C(=O)O

COMPOUND | half-life at 20 μM
CC(=O)NCCCC[C@@H]1NC(=O)[C@H](Cc2c[nH]c3c(C)cccc23)NC(=O)[C@H]([C@@H](C)O)NC(=O)[C@H](CC(N)=O)NC(=O)[C@@H](NC(C)=O)C(C)(C)SSC(C)(C)[C@@H](C(=O)N[C@@H](Cc2ccc(OCCN)cc2)C(=O)N[C@@H](Cc2c(C)[nH]c3ccccc23)C(=O)N[C@@](C)(CCCCN)C(=O)N[C@@H](CCCCNC(C)=O)C(=O)N[C@@H](CC(N)=O)C(=O)N[C@H](CCCCN)C(N)=O)NC1=O [compound 353] (Ac-[Pen]NT[Trp(7-Me)]K(Ac)[Pen][AEF][Trp(2-Me)][αMeK]K(Ac)N[dK]-NH2; disulfide 1-6) | > 24 h
CC(=O)NCCCC[C@H](NC(=O)[C@](C)(CCCCN)NC(=O)[C@H](Cc1ccc2ccccc2c1)NC(=O)[C@H](Cc1ccc(OCCN)cc1)NC(=O)[C@H]1NC(=O)[C@H](CCCCNC(=O)CC(C)C)NC(=O)[C@H](Cc2c[nH]c3c(C)cccc23)NC(=O)[C@H]([C@@H](C)O)NC(=O)[C@H](CC(N)=O)NC(=O)[C@@H](NC(C)=O)C(C)(C)SSC1(C)C)C(=O)N[C@@H](CC(N)=O)C(=O)N[C@H](CC(C)C)C(N)=O | > 24 h
CC(=O)NCCCC[C@@H]1NC(=O)[C@H](Cc2c[nH]c3c(C)cccc23)NC(=O)[C@H]([C@@H](C)O)NC(=O)[C@H](CCCCNC(C)=O)NC(=O)[C@@H](NC(C)=O)C(C)(C)SSC(C)(C)[C@@H](C(=O)N[C@@H](Cc2ccc(OCCN)cc2)C(=O)N[C@@H](Cc2ccc3ccccc3c2)C(=O)N[C@@](C)(CCCCN)C(=O)N[C@@H](CCCCNC(C)=O)C(=O)N[C@@H](CC(N)=O)C(=O)N[C@H](CC(C)C)C(N)=O)NC1=O [compound 330] (Ac-[Pen]K(Ac)T[Trp(7-Me)]K(Ac)[Pen][AEF][2Nal][αMeK]K(Ac)N[dL]-NH2; disulfide 1-6) | > 24 h
CC(=O)NCCCC[C@@H]1NC(=O)[C@H](Cc2c[nH]c3c(C)cccc23)NC(=O)[C@H]([C@@H](C)O)NC(=O)[C@H](CC(N)=O)NC(=O)[C@@H](NC(C)=O)C(C)(C)SSC(C)(C)[C@@H](C(=O)N[C@@H](Cc2ccc(OCCN)cc2)C(=O)N[C@@H](Cc2ccc3ccccc3c2)C(=O)N[C@@](C)(CCCCN)C(=O)N[C@@H](CCCCNC(C)=O)C(=O)N[C@@H](CC(N)=O)C(=O)N[C@@H](Cc2c[nH]cn2)C(N)=O)NC1=O | > 22.3 h
